Assay Text: maximal tolerated dose, single intravenous administration of Compound 1324
Assay type: in vivo, mice
Cond: mouse, in vivo; single intravenous bolus, CD-1 mice
Observed Property: LD50

Prompt: // LD50 lookup, key: CCCCCCCC(=O)N[C@@H](CCCNCS(=O)(=O)O)C(=O)N[C@@H](CCCNCS(=O)(=O)O)C(=O)N[C@@H](CC(C)C)C(=O)N[C@@H](CC(C)C)C(=O)N[C@@H](CCCNCS(=O)(=O)O)C(=O)N[C@@H](CCCNCS(=O)(=O)O)C(=O)N[C@@H](CC(C)C)C(=O)N[C@@H](CCCNCS(=O)(=O)O)C(=O)N[C@@H](CCCNCS(=O)(=O)O)C(=O)N[C@@H](CC(C)C)C(N)=O [Compound 1324]
Completion: 200 to 282 mg/kg
